FYI, the data here is from ChEMBL document CHEMBL4680292.

System: NCI-H1299
assayRemarks: Anticancer activity against human NCI-H1299 cells assessed as inhibition of cell proliferation measured after 72 hrs by MTT assay
Format: functional, cell-based
details: NCI-H1299, 72 h
pIC50: −log10 of the molar value.

structureSmilesString	pIC50
COc1ccc2cc1Oc1ccc(cc1)Cc1nccc3c4c(c(OC)c(c13)Oc1c3c(cc(OC)c1OC)[C@H](C2)N(C)CC3)OCO4	6.88

###

System: MDA-MB-231
assayRemarks: Anticancer activity against human MDA-MB-231 cells assessed as inhibition of cell proliferation measured after 72 hrs by MTT assay
Format: functional, cell-based
details: MDA-MB-231, 72 h
measure: IC50

structureSmilesString	reported
COc1ccc2cc1Oc1ccc(cc1)Cc1nccc3c4c(c(OC)c(c13)Oc1c3c(cc(OC)c1OC)[C@H](C2)N(C)CC3)OCO4	467 nM
